- TARGET ENTITY: T1, hIL-3 receptor (human, UniProt P26951)
- T1 sequence: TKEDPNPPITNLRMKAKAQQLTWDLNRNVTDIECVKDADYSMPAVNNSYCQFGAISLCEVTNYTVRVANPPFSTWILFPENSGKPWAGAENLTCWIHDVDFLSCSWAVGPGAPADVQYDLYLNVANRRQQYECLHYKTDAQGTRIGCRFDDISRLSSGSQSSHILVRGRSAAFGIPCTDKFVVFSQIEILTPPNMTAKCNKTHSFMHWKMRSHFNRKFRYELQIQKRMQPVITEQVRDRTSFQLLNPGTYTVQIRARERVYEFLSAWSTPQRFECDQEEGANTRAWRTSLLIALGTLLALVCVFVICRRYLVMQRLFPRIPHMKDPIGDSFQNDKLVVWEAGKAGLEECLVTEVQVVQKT
- MEASUREMENT PROTOCOL: cell-based or functional assay
PARAMETER MEASURED: Relative Biological Activity (AML 193 proliferation)

>>> obs_value("pMON13414 polypeptide (ligand) MANCSIIIDEIIHHLKRPPNPLLDPNNLNSEDMDILMERNLRTPNLLAFVRAVKHLENASGIEAILRNLQPCLPSATAAPSRHPIIIKAGDWQEFREKLTFYLVTLEQAQEQQ")
"4 EC50 (1-133)hIL-3 / EC50 mutant"
>>> obs_value("pMON13420 polypeptide (ligand) MANCSIMIDEAIHHLKRPPAPSLDPNNLNDEDVSILMDRNLRLSNLESFVRAVKNLENASGIEAILRNLQPCLPSATAAPSRHPIIIKAGDWQEFREKLTFYLVTLEQAQEQQ")
"19 EC50 (1-133)hIL-3 / EC50 mutant"
>>> obs_value("pMON13429 polypeptide (ligand) MANCSIIIDEIIHHLKRPPNPLLDPNNLNSEDVDILDERNLRTPNLLAFVRAVKHLENASGIEAILRNLQPCLPSATAAPSRHPIIIKAGDWQEFREKLTFYLVTLEQAQEQQ")
"> 0.0002 EC50 (1-133)hIL-3 / EC50 mutant"
>>> obs_value("pMON13380 polypeptide (ligand) MANCSIMIDEAIHHLKVPPAPLLDSNNLNSEDMDILMERNLRLPNLLAFVRAVKNLENASGIEAILRNLQPCLPSATAAPSRHPIIIKAGDWQEFREKLQFYLVTLEQAQEQQ")
"0.05 EC50 (1-133)hIL-3 / EC50 mutant"
>>> obs_value("pMON13286 polypeptide (ligand) MANCSNMIDEIITHLKQPPLPLLDFNNLNDEDMSILMENNLRRPNLEAFNRAVKSLQNASAIESILKNLLPCLPLATAAPTRHPIHIKDGDWNEFRRKLTFYLKTLENAQAQQ")
"8 EC50 (1-133)hIL-3 / EC50 mutant"
>>> obs_value("pMON13387 polypeptide (ligand) MANCSIMIDEIIHHLKRPPAPLLDPNNLNAEDVDILMDRNLRLPNLESFVRAVKNLENASGIEAILRNLQPCLPSATAAPSRHPIIIKAGDWQEFREKLTFYLVTLEQAQEQQ")
"32 EC50 (1-133)hIL-3 / EC50 mutant"
>>> obs_value("pMON13459 polypeptide (ligand) MANCSIMIDELIHHLKIPPNPSLDSANLNSEDVSILMERNLRTPNLLAFVRAVKHLENASGIEPILSNLQPCVPYWTAPPSRTPITIKAGDWQEFRLKLQFYLSTLEQAQEQQ")
"0.003 EC50 (1-133)hIL-3 / EC50 mutant"
>>> obs_value("pMON13289 polypeptide (ligand) MANCSIMIDEIIHHLKVPPAPLLDSNNLNSEDMDILMERNLRLPNLLAFVRAVKNLENASGIEAILRNLQPCLPSATAAPSRHPIIIKAGDWQEFREKLTFYLVTLEQAQEQQ")
"13 EC50 (1-133)hIL-3 / EC50 mutant"
